Just for reference, paper PMC9093066 is where these values come from.

- subject-of-test: SARS-CoV-2 Mac1 (Severe acute respiratory syndrome coronavirus 2, UniProt P0DTD1)
- Assay type: binding
- assay-conditions: AlphaScreen ADP-ribose binding; IC50 ± SD of three replicates
endpoint-name: SARS CoV2 Mac1 Alpha (IC50)

CCOC(=O)[C@H](CC(C)C)Nc1ncnc2[nH]ccc12 [Compound 14b]	completely inactive
CC(C)C[C@H](Nc1ncnc2[nH]ccc12)C(=O)O [Compound 15b]	completely inactive
